Data origin: the Immune Epitope Database (IEDB)

target: HLA-A*02:01; test: IEDB peptide-MHC binding, purified MHC/direct/fluorescence; filed as Kd, often an IC50 or EC50 that approximates it; bounds were set here for any values at or beyond the usual limits of such assays; settings: source organism: Influenza A virus (A/Viet Nam/HN/2004(H5N1))
Parameter measured: Kd

**Query** Kd for FRNQVKIRR ?
**Result** ≥ 20 µM

###

target: HLA-B*53:01; experiment: IEDB peptide-MHC binding, purified MHC/competitive/radioactivity; filed as Kd, often an IC50 or EC50 that approximates it; bounds were set here for any values at or beyond the usual limits of such assays; details: source organism: Dengue virus 2 Jamaica/1409/1983
Entries and their Kd
Please respond with the number in nM and leave the unit unwritten.

entry_sequence=LPVWLAYRV observed=200

Moving on to the next sequence.
**Query** Kd for IPTAMAFHL ?
**Result** 49.4

###

target: HLA-A*29:02; test: IEDB peptide-MHC binding, purified MHC/competitive/fluorescence; filed as Kd, often an IC50 or EC50 that approximates it; bounds were set here for any values at or beyond the usual limits of such assays; details: source organism: Mycobacterium tuberculosis variant bovis BCG str. Pasteur 1173P2
Parameter measured: pKd
API: returns pKd as number; meaning -log10 of concentration in mol/L.

**Query** pKd for RLAPEPVYT ?
**Result** 5.52

###

target: HLA-B*48:01; experiment: IEDB peptide-MHC binding, purified MHC/direct/fluorescence; filed as Kd, often an IC50 or EC50 that approximates it; bounds were set here for any values at or beyond the usual limits of such assays; conditions: source organism: Yersinia pestis
pKd: −log10 of the molar value.
Parameter measured: pKd

**Query** pKd for QWSPGPGRL ?
**Result** ≤ 4.70

###

biological target: HLA-B*46:01; experiment: IEDB peptide-MHC binding, purified MHC/direct/fluorescence; filed as Kd, often an IC50 or EC50 that approximates it; bounds were set here for any values at or beyond the usual limits of such assays; conditions: source organism: Influenza A virus (A/Quail/Shanghai/8/96(H9N2))
Parameter measured: Kd

**Query** Kd for LVGGREWSY ?
**Result** ≥ 20 µM

###

molecular target: HLA-A*03:01; experiment: IEDB peptide-MHC binding, purified MHC/competitive/radioactivity; filed as Kd, often an IC50 or EC50 that approximates it; bounds were set here for any values at or beyond the usual limits of such assays; conditions: source organism: Dengue virus 3 Martinique/1243/1999
Parameter measured: pKd
API: returns pKd as number; meaning -log10 of concentration in mol/L.

**Query** # returns recorded pKd (system: HLA-A*03:01) for MGYWIESQK
**Result** 7.89

###

target: HLA-A*02:01; experiment: IEDB peptide-MHC binding, purified MHC/competitive/fluorescence; bounds were set here for any values at or beyond the usual limits of such assays; conditions: source organism: Vaccinia virus Copenhagen
pIC50: −log10 of the molar value.
Parameter measured: pIC50

entry_sequence=TFALKKLII observed="≤ 3.88"

**Query** pIC50 for KCIEYVTLN ?
**Result** ≤ 3.90

**Query** pIC50 for GAMVEYVSA ?
**Result** 4.48

###

biological target: HLA-A*32:07; assay: IEDB peptide-MHC binding, purified MHC/competitive/fluorescence; filed as Kd, often an IC50 or EC50 that approximates it; bounds were set here for any values at or beyond the usual limits of such assays; details: source organism: Salmonella enterica subsp. enterica serovar Typhi
Parameter measured: pKd
API: returns pKd as number; meaning -log10 of concentration in mol/L.

**Query** pKd for WTFTPTTPL ?
**Result** 6.12

###

target: HLA-B*07:02; experiment: IEDB peptide-MHC binding, purified MHC/direct/fluorescence; filed as Kd, often an IC50 or EC50 that approximates it; bounds were set here for any values at or beyond the usual limits of such assays; details: source organism: Ebola virus - Mayinga, Zaire, 1976
Parameter measured: Kd

**Query** Kd for FIYFGKKQY ?
**Result** ≥ 20 µM

###

target: HLA-A*29:02; test: IEDB peptide-MHC binding, purified MHC/direct/fluorescence; filed as Kd, often an IC50 or EC50 that approximates it; bounds were set here for any values at or beyond the usual limits of such assays; settings: source organism: Orthohantavirus andesense
pKd: −log10 of the molar value.
Parameter measured: pKd

**Query** pKd for YLQAKSQVL ?
**Result** ≤ 4.70

###

molecular target: HLA-B*18:01; experiment: IEDB peptide-MHC binding, purified MHC/direct/fluorescence; filed as Kd, often an IC50 or EC50 that approximates it; bounds were set here for any values at or beyond the usual limits of such assays; settings: source organism: Giardia intestinalis
pKd: −log10 of the molar value.
Parameter measured: pKd

**Query** pKd for INTLESMMK ?
**Result** ≤ 4.70

###

target: HLA-B*15:01; assay: IEDB peptide-MHC binding, purified MHC/direct/fluorescence; filed as Kd, often an IC50 or EC50 that approximates it; bounds were set here for any values at or beyond the usual limits of such assays; settings: source organism: Influenza A virus (A/duck/Hokkaido/1130/01(H1N1))
Parameter measured: Kd

**Query** Kd for ELRSRYWAI ?
**Result** ≥ 20 µM

###

target: HLA-A*69:01; assay: IEDB peptide-MHC binding, purified MHC/direct/fluorescence; filed as Kd, often an IC50 or EC50 that approximates it; bounds were set here for any values at or beyond the usual limits of such assays; conditions: source organism: Brucella suis
Parameter measured: Kd

**Query** Kd for DVIGNDRQE ?
**Result** ≥ 20 µM

###

target: HLA-B*44:02; assay: IEDB peptide-MHC binding, purified MHC/direct/fluorescence; filed as Kd, often an IC50 or EC50 that approximates it; bounds were set here for any values at or beyond the usual limits of such assays; conditions: source organism: Salmonella enterica
pKd: −log10 of the molar value.
Parameter measured: pKd

**Query** pKd for QTDDGVRFT ?
**Result** ≤ 4.70

###

molecular target: HLA-A*03:01; assay: IEDB peptide-MHC binding, purified MHC/direct/fluorescence; filed as Kd, often an IC50 or EC50 that approximates it; bounds were set here for any values at or beyond the usual limits of such assays; details: source organism: Vibrio parahaemolyticus AQ3810
Parameter measured: Kd

**Query** Kd for MQGKDFNHL ?
**Result** ≥ 20 µM

###

molecular target: HLA-A*30:01; assay: IEDB peptide-MHC binding, purified MHC/competitive/radioactivity; filed as Kd, often an IC50 or EC50 that approximates it; bounds were set here for any values at or beyond the usual limits of such assays; settings: source organism: Dengue virus 1 Nauru/West Pac/1974
Parameter measured: pKd
API: returns pKd as number; meaning -log10 of concentration in mol/L.

**Query** pKd for GTTATITPQA ?
**Result** 6.08

###

target: HLA-A*69:01; assay: IEDB peptide-MHC binding, purified MHC/competitive/fluorescence; filed as Kd, often an IC50 or EC50 that approximates it; bounds were set here for any values at or beyond the usual limits of such assays; details: source organism: Deerpox virus W-848-83
pKd: −log10 of the molar value.
Parameter measured: pKd

**Query** pKd for YVAGITLTH ?
**Result** ≤ 4.70

###

target: HLA-A*02:03; test: IEDB peptide-MHC binding, purified MHC/competitive/radioactivity; filed as Kd, often an IC50 or EC50 that approximates it; bounds were set here for any values at or beyond the usual limits of such assays; settings: source organism: Mammarenavirus whitewaterense
Parameter measured: pKd
API: returns pKd as number; meaning -log10 of concentration in mol/L.

**Query** pKd for GLLQFIVFL ?
**Result** 5.11

###

Entries and their pIC50
biological target: HLA-A*02:01; assay: IEDB peptide-MHC binding, purified MHC/competitive/fluorescence; bounds were set here for any values at or beyond the usual limits of such assays; conditions: source organism: Sudan ebolavirus
API: returns pIC50 as number; meaning -log10 of concentration in mol/L.

Reference set, count: 2
entry_sequence=ALVCGLRQL observed=4.64
entry_sequence=NITDKINQI observed=4.36

**Query** pIC50 for SSPGPTTEA ?
**Result** 4.84

**Query** pIC50 for VSYEAGEWA ?
**Result** 4.82

###

molecular target: HLA-A*80:01; experiment: IEDB peptide-MHC binding, purified MHC/direct/fluorescence; filed as Kd, often an IC50 or EC50 that approximates it; bounds were set here for any values at or beyond the usual limits of such assays; details: source organism: Mammarenavirus lassaense
Parameter measured: Kd (nM)
Please respond with the number in nM and leave the unit unwritten.

**Query** Kd for YENAVWDQY ?
**Result** 463

###

biological target: HLA-A*02:01; assay: IEDB peptide-MHC binding, purified MHC/direct/fluorescence; filed as Kd, often an IC50 or EC50 that approximates it; bounds were set here for any values at or beyond the usual limits of such assays; settings: source organism: Giardia lamblia ATCC 50803
pKd: −log10 of the molar value.
Entries and their pKd

Reference set, count: 2
entry_sequence=TTIEDILPK system=HLA-A*02:01 observed="≤ 4.70"
entry_sequence=RHIAIQVCY system=HLA-A*02:01 observed="≤ 4.70"

Moving on to the next sequence.
**Query** pKd for LLIQGLKTV ?
**Result** 8.70
